Overview of reported EC50 across a group of compounds:
System: Rat whole blood (RWB)
Test: LTB4 secretion assay in RWB (rat whole blood)
Assay type: cell-based
Reported Conditions: Rattus norvegicus

# annotated cases, reported EC50 shown
# Compound, Result Value
measured = [
    ("Nc1ccc2[nH]c(NCc3ccc(N4CCC(OCc5ccc(Cl)cc5)CC4)cc3)nc2c1", "> 20 µM"),
    ("CCC(Nc1nc2ccc(NC3COC3)cc2n1C)c1ccc(Oc2ccc(Cl)cn2)cc1 (centres unmarked)", "< 10 µM"),
    ("Cn1c(NCc2ccc(Oc3ccc(Cl)cn3)cc2)nc2ccc(Nc3ccccn3)cc21", "< 10 µM"),
    ("Cn1c(NCc2ccc(Oc3ccc(F)cn3)cc2)nc2ccc(NC3COC3)cc21", "10 to 20 µM"),
    ("Cn1c(NCc2ccc(OCc3ncco3)cc2)nc2ccc(NC3COC3)cc21", "10 to 20 µM"),
    ("Nc1ccc2nc(NCc3ccc(C(=O)c4ccccc4)cc3)[nH]c2c1", "< 10 µM"),
    ("Nc1ccc2[nH]c(NCc3ccc(-c4ccc(Cl)cn4)cc3)nc2c1", "> 20 µM"),
]

Next compound, EC50 to be filled in.
Input CN(C)c1nc2ccc(N3CCC(C(=O)c4ccc(OC(F)(F)F)cc4)C3)cc2[nH]1 (centres unmarked) . Output EC50: > 20 µM

* * *

Recorded pEC50, one value per entry.
Test system: Rat whole blood (RWB)
Test: LTB4 secretion assay in RWB (rat whole blood)
Format: cell-based
Reported Conditions: Rattus norvegicus
Description: Rat blood was drawn from caudal vena cava from male Sprague Dawley rat (6-9 weeks old) in vacuette coated with sodium heparin (Greiner bio-one, Cat #455051). The blood was pooled and diluted with RPMI (WelGENE, Cat #LM 011-05) to 1:1. […] Cells were removed by centrifugation at 1000×g, 4° C. for 10 min, and the supernatant was transferred and then the quantification of LTB4 was done with Leukotriene B4 EIA kit (Cayman, Cat #520111) as instructed.
pEC50: −log10 of the molar value.

Solved cases (3 shown):
# Compound, Measured Target, Attribute Measured, Result Value
records = [
    ("Cn1c(NCc2ccc(Oc3ccc(Cl)cn3)cn2)nc2ccc(NC3COC3)cc21", "Rat whole blood (RWB)", "pEC50", "4.70 to 5.00"),
    ("Cn1c(NCc2ccc(Oc3ncc(Cl)cn3)cc2)nc2ccc(Nc3nc(C(F)(F)F)co3)cc21", "Rat whole blood (RWB)", "pEC50", "> 5.00"),
    ("c1ccc(Oc2ccc(CNc3nc4cc(NC5CCOC5)ccc4[nH]3)cc2)cc1 (stereo not shown)", "Rat whole blood (RWB)", "pEC50", "> 5.00"),
]

The value of pEC50 measured for the compound Nc1nc2ccc(NC3COC3)cc2n1Cc1ccc(Oc2ccc(Cl)cn2)cc1 turned out to be > 5.00

* * *

System: Rat whole blood (RWB)
Test: LTB4 secretion assay in RWB (rat whole blood)
Format: cell-based
Reported Conditions: Rattus norvegicus
pEC50: −log10 of the molar value.
Attribute Measured: pEC50

Worked examples follow.
# Compound, pEC50
measured = [
    ("Nc1ccc2c(c1)nc(N)n2CCOc1ccc(OC(F)(F)F)cc1 [Compound 49]", "4.70 to 5.00"),
    ("FC(F)(F)CCNc1nc2ccc(NC3COC3)cc2n1Cc1ccc(Oc2ccc(Cl)cc2)cc1 [Compound 279]", "> 5.00"),
    ("Cn1nc(Nc2ccc3nc(NCc4ccc(Oc5ccc(Cl)cn5)cc4)n(C)c3c2)cc1C(F)(F)F [Compound 502]", "> 5.00"),
    ("Cn1c(NCCOc2ccc(OC(F)(F)F)c(Cl)c2)nc2ccc(N)cc21 [Compound 58]", "< 4.70"),
]

pEC50 recorded for this compound, Cn1c(NCc2ccc(Oc3ncc(Cl)cn3)cc2F)nc2ccc(NC3COC3)cc21 [Compound 381] , is > 5.00

Entry under test: Nc1ccc2[nH]c(NCc3ccc(Oc4ccc(Cl)cn4)cc3)nc2c1 [Compound 138] . Its pEC50 was > 5.00

For this compound ( Cn1c(NCc2ccc(Oc3nc4ccc(N)cc4n3C)cc2)nc2ccc(NC3COC3)cc21 [Compound 409] ), measured pEC50 is < 4.70

The compound identified as CC(C)(C)Nc1nc2ccc(N)cc2n1CCOc1ccc(OC(F)(F)F)cc1 [Compound 65] registered its pEC50 at > 5.00

Entry CCn1c(NCc2ccc(Oc3ncc(Cl)cn3)cc2)nc2c(F)cc(NC3COC3)cc21 [Compound 555] , pEC50 reported as 4.70 to 5.00

// recorded pEC50 for CC(C)n1c(NCc2ccc(Oc3ccc(Cl)cn3)cc2)nc2ccc(NC3COC3)cc21 [Compound 271] : > 5.00

* * *

Measured Target: human 5-LOX (Homo sapiens, UniProt P09917)
Construct: purchased Cayman 60402; host or cells: insect cells (lysate)
Sequence (P09917 whole entry): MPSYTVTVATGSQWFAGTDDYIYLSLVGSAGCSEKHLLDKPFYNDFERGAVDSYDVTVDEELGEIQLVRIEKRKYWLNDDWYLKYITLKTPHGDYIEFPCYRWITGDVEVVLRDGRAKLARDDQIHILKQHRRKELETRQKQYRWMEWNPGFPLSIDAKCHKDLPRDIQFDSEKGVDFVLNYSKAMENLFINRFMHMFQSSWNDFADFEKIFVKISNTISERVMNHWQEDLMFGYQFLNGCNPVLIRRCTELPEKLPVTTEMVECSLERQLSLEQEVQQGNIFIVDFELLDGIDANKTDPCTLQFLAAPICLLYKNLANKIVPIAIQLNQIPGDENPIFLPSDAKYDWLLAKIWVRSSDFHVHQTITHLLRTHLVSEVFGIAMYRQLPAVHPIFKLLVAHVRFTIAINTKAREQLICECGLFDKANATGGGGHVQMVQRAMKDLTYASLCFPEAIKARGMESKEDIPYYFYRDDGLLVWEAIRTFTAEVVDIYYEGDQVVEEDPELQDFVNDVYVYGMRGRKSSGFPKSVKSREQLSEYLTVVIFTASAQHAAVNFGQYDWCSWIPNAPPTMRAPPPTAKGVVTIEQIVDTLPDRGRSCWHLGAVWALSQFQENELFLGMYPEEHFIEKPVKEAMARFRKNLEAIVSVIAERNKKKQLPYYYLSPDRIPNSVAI
Test: 5-LOX enzyme activity, fluorescence method (5-HPETE, H2DCFDA)
Type: biochemical
Reported Conditions: read-out: 5-LO (IC50)
Attribute Measured: IC50

compound Cn1c(NCc2ccc(COc3ccc(Cl)cn3)cc2)nc2ccc(NC3COC3)cc21 , IC50 observed: < 1000 nM

Consider Nc1cnc2nc(N3CCCC3)n(CCOc3ccc(OC(F)(F)F)cc3)c2c1 . Its measured IC50 is 1000 to 10000 nM

Query Cn1c(NCc2ccc(Oc3nc4ccccc4n3C)cc2)nc2ccc(NC3COC3)cc21 yields IC50 of < 1000 nM

# IC50 (compound: Cn1c(NCc2ccc(Oc3ncc4cccc(Cl)c4n3)cc2)nc2ccc(N)cc21 ) is < 1000 nM

IC50 for Cn1c(NCc2ccc(Oc3nc4ccc(N)cc4n3C)cc2)nc2ccc(NC3COC3)cc21 is < 1000 nM

IC50 in this record for CN(C)c1nc2ccc(N3CCC(C(=O)c4ccc(Cl)cn4)C3)cc2[nH]1 (centres unmarked) : < 1000 nM

Measured IC50, Nc1ccc2c(c1)nc(N1CCCC1)n2CCOc1ccc(OC(F)(F)F)cc1 : 1000 to 10000 nM

The compound identified as Nc1ccc2nc(NCc3ccc4cccnc4c3)[nH]c2c1 registered its IC50 at < 1000 nM

The compound identified as Nc1ccc2nc(NCc3ccc(Oc4ccc(Cl)cn4)cc3)n(CCO)c2c1 registered its IC50 at < 1000 nM

* * *

Each item that follows carries a reported pEC50.
Test system: Rat whole blood (RWB)
Test: LTB4 secretion assay in RWB (rat whole blood)
Format: cell-based
Reported Conditions: Rattus norvegicus
pEC50: −log10 of the molar value.

// below: answered compounds
# Compound, Measured Target, Attribute Measured, Result Value
rows = [
    ("Nc1ccc2[nH]c(NCCc3ccc(Cl)cc3Cl)nc2c1 [Compound 73]", "Rat whole blood (RWB)", "pEC50", "4.70 to 5.00"),
    ("Nc1ccc2[nH]c(NCc3ccc(Oc4ccc(F)cc4)cc3)nc2c1 [Compound 94]", "Rat whole blood (RWB)", "pEC50", "> 5.00"),
    ("Cn1c(NCCOc2ccc(OC(F)(F)F)cc2Cl)nc2cc(N)ccc21 [Compound 57]", "Rat whole blood (RWB)", "pEC50", "< 4.70"),
    ("Cn1c(NCc2ccc(Oc3ccc4cc(F)ccc4n3)cc2)nc2ccc(NC3COC3)cc21 [Compound 383]", "Rat whole blood (RWB)", "pEC50", "< 4.70"),
    ("CCn1c(NCc2ccc(Oc3ncc(C(F)(F)F)cn3)cc2)nc2ccc(Nc3cc(C(C)(C)C)[nH]n3)cc21 [Compound 507]", "Rat whole blood (RWB)", "pEC50", "4.70 to 5.00"),
    ("CCn1c(NCc2ccc(Oc3ncc(C(F)(F)F)cn3)cc2F)nc2ccc(Nc3cc(C)[nH]n3)cc21 [Compound 540]", "Rat whole blood (RWB)", "pEC50", "> 5.00"),
]

The compound listed as CN(C)c1nc2ccc(NCc3ccc(OCc4ncco4)cc3)cc2[nH]1 [Compound 233] shows pEC50 equal to > 5.00

# pEC50 of CCC(Nc1nc2ccc(Nc3cc(C)[nH]n3)cc2n1C)c1ccc(Oc2ncc(Cl)cn2)cc1F (stereo not shown) [Compound 537] = > 5.00

Cn1c(NCc2ccc(Oc3ccc(C(F)(F)F)cn3)cc2)nc2c(F)cc(NC3COC3)cc21 [Compound 552] yielded pEC50 of 4.70 to 5.00

Recorded pEC50 (compound Cn1c(NCc2ccc(Oc3ncc(C#N)cn3)cc2)nc2ccc(N)cc21 [Compound 367] ): > 5.00

Nc1ccc2nc(NC3CCCC3)n(CCOc3ccc(OC(F)(F)F)cc3)c2c1 [Compound 120] has a reported pEC50 of > 5.00

Record Nc1ccc2nc(NCc3ccc(C(=O)c4ccc(Cl)cc4)cc3)[nH]c2c1 [Compound 130] , field pEC50: > 5.00

pEC50 reading for CN(C)c1nc2ccc(N)cc2n1CCOc1ccc(OC(F)(F)F)cc1 [Compound 44] : < 4.70

Per the records, this compound ( Nc1ccc2[nH]c(NCc3ccc(Oc4ccc(Cl)cc4)cc3F)nc2c1 [Compound 10] ) has pEC50 equal to 4.70 to 5.00

# compound Nc1ccc2nc(N)n(Cc3ccc(Oc4ccc(Cl)nc4)cc3)c2c1 [Compound 238] ; its pEC50 = > 5.00

In plain terms, Nc1ccc2[nH]c(NCc3ccc(Oc4ccc(F)c(Cl)c4)cc3)nc2c1 [Compound 102] has a documented pEC50 of > 5.00
